# credit: paper PMC8185074

# target_or_test_system: HDAC6 (Homo sapiens, UniProt Q9UBN7)
# Construct: purchased Reaction Biology Corporation (assay run by the CRO)
# Sequence (Q9UBN7 whole entry): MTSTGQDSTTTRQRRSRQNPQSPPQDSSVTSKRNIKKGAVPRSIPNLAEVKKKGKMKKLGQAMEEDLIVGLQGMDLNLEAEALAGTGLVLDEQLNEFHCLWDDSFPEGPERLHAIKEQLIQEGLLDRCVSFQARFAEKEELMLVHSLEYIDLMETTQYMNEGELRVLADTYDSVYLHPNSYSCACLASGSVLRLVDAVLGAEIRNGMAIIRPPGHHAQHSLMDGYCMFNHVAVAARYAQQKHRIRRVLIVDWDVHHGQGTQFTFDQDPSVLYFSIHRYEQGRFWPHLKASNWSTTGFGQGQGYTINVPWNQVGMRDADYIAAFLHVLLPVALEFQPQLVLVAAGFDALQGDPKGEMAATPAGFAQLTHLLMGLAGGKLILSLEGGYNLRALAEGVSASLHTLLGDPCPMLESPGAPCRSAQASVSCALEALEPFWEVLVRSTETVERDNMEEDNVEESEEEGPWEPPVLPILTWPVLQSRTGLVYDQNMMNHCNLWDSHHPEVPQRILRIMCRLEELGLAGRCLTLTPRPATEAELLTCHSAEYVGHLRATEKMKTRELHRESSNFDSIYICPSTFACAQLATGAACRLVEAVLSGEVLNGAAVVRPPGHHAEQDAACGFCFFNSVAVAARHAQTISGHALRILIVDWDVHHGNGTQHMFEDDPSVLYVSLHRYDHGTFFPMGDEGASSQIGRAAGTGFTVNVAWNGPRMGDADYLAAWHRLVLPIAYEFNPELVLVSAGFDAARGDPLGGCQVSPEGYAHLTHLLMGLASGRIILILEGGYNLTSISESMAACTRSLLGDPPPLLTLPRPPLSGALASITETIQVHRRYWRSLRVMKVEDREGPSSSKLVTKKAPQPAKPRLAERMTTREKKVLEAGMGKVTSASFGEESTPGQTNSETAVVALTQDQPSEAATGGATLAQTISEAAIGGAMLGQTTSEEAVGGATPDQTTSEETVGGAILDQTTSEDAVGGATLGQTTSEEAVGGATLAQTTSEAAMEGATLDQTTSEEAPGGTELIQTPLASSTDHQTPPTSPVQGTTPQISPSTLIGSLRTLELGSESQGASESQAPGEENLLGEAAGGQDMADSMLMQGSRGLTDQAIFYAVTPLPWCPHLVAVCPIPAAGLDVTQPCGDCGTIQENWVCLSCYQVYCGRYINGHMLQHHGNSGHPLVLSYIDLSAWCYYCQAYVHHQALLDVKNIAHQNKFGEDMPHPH
# run_description: HDAC6 inhibition, full IC50 measurement (Reaction Biology; fluorogenic p53 peptide RHKK(Ac)AMC)
# Format: biochemical
# experimental_conditions: Conc. 1.37E-08 M, t1
Peptide text beside a SMILES is read from it.
measurement_label: HDAC6 activity raw data (signal)
One number for each entry.

Ask | State its HDAC6 activity raw data (signal): C[C@H](O)[C@H]1NC(=O)[C@H](Cc2c[nH]c3ccccc23)NC(=O)[C@H](CCCCCS)NC(=O)[C@H](CCCCN)NC(=O)[C@@H](CC(=O)O)NC(=O)[C@@H](CCCCN)NC(=O)[C@@H](CO)NC(=O)[C@H](CC(N)=O)NC(=O)[C@H](CC(=O)O)NC1=O [des2.1.0, SHA-Trp-dThr-Asp-Asn-dSer-dLys-dAsp-Lys] (HELM PEPTIDE1{D.N.[dS].[dK].[dD].K.[O=C([C@H](CCCCCS)N[*:1])[*:2]].W.[dT]}$PEPTIDE1,PEPTIDE1,1:R1-9:R2$$$V2.0)
Reply | 435775
